Source of measurements: PubChem BioAssay

- experimentNotes: AGP1-GFP expression modulators, hit retest, confirmation, cell-based, flow cytometry, S. cerevisiae, cherry picks (AID 2273);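 note: median GFP channel fluorescence over the whole cell population gate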
- testSettings: S. cerevisiae AGP1-GFP strain, 3 h, at 10 µM
assayReadout: GFP response, % of DMSO (%)

molecule	measuredValue
Cc1ccc(/C=C2\SC(=S)N(CC3CCCO3)C2=O)o1 (stereo not drawn)	100
CCOC(=O)CSC1=NC(=O)/C(=C\c2ccc(Cl)cc2)S1	116
Cc1cccn2c(=O)c(/C=C(\C#N)C(=O)NC3CCS(=O)(=O)C3)c(N3CCC(C(N)=O)CC3)nc12 (stereo not drawn)	89.7

###

- experimentNotes: inhibitors of CD8+ T cell-vesicle binding, pilot screen, LFA-1/ICAM-1 modulator project, MLPCN validation set, flow cytometry (AID 2523)
- testSettings: 2C mouse CD8+ T cells, at 7 µM, stronger effect = lower value; measured here: CD8+/vesicle+ event percentage

compound	double positive events, %
CC(C)C[C@H](NC(=O)NC(C)C)C(=O)O	60.1
CCC12CN3CC(CC)(CN(C1)C31C(=O)N(C)c3ccc(C)cc31)C2=O (centres undefined)	59.5
COC(=O)c1cc(OC)c(OC)cc1NC(=O)Nc1ccc(OC)cc1OC	58.5
COc1ccc(CNC(=O)c2cc3c(=O)n4ccccc4nc3n(Cc3cccnc3)c2=N)cc1	60.5
CN1CCc2cccc3c2[C@H]1Cc1ccc(O)c(O)c1-3	61
COc1ccc(/C=N\NC(=O)CCc2c(C)n[nH]c2C)c(OC)c1OC	60.3
CC1(C)c2ccccc2N2CC(=O)N(CC(N)=O)C21C (centres undefined)	61.8
Cn1cc(CN2CCCC(CO)(Cc3cccc(Cl)c3)C2)cn1 (centres undefined)	59.5
CCCC1O[C@@H]2C[C@H]3[C@@H]4CCC5=CC(=O)C=C[C@]5(C)[C@H]4[C@@H](O)C[C@]3(C)[C@]2(C(=O)CO)O1 (some centres undefined)	58.8
